- System: MCL1 (Homo sapiens)
- Sequence (Q07820 whole entry): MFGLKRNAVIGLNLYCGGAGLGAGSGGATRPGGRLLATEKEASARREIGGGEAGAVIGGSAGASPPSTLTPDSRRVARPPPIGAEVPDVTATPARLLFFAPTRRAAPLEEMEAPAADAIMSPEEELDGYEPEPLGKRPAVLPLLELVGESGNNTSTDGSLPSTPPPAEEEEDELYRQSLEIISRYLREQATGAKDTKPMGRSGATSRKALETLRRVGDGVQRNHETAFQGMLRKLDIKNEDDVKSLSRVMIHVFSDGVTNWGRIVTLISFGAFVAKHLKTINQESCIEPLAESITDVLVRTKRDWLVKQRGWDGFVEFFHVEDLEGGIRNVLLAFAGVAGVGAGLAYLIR
- Assay protocol: MCL1 affinity assay (competition binding, qPCR readout)
- Experimental setup: recombinant MCL1, 11-point 3-fold dilution series
Measurement type: Kd

The examples below pair each entry with its known result.
- Compound: "COc1cccc(-c2ncc3snc(O[C@H](Cc4ccccc4OCc4ccnc(-c5ccccc5S(C)(=O)=O)n4)C(=O)O)c3c2-c2ccc(OCCN3CCN(C)CC3)c(Cl)c2C)c1 (atropisomer, axis not shown) [Compound 68]"
  Result: "≤ 100 nM"
- Compound: "COc1ccccc1-c1nccc(COc2ccccc2C[C@@H](Oc2nsc3cnc(-c4ccc(F)cc4C)c(-c4ccc(OCCN5CCN(C)CC5)c(Cl)c4C)c23)C(=O)O)n1 (atropisomer, axis not shown) [Compound 86]"
  Result: "501 to 1500 nM"

In: Which Kd is listed for Cc1c(-c2c(-c3ccc(F)cc3)ncc3snc(O[C@H](Cc4ccccc4OCc4ccnn4CC(F)(F)F)C(=O)O)c23)ccc(OCCN2CCN(C)CC2)c1Cl (single isomer, unassigned) [Compound 5] ?
Out: > 1500 nM

In: Any idea what its Kd is? The compound is COc1cccc(-c2ncc3snc(O[C@H](Cc4ccccc4OCc4ccnc(OCCCC(F)(F)F)n4)C(=O)O)c3c2-c2ccc(OCCN3CCN(C)CC3)c(Cl)c2C)c1 [Compound 59]
Out: 101 to 500 nM

In: # query: Kd of entry Cc1c(-c2cc(-c3nccc4cc(Cl)ccc34)cc3snc(O[C@H](Cc4ccccc4OCc4ccnn4CC(F)(F)F)C(=O)O)c23)ccc(OCCN2CCN(C)CC2)c1Cl [Compound 95]
Out: > 1500 nM

---

- Assay protocol: Maximum tolerated dose in mice
- Experimental setup: CD-1 athymic nude, mouse, in vivo, iv
Measurement type: MTD at 5 days

In: Name the reported MTD at 5 days value associated with the compound COc1ccccc1-c1nccc(COc2ccccc2C[C@@H](Oc2ncnc3sc(-c4ccc(F)cc4)c(-c4ccc(OCCN5CCN(C)CC5)c(Cl)c4C)c23)C(=O)O)n1
Out: ~10 mg/kg

---

- Tested on: drug-sensitive cell lines of Table 3
- Assay protocol: Cell line growth retardation assay, sensitive cohort
- Assay type: cell-based, Human
- Experimental setup: arithmetic mean of IC50s over the sensitive cohort of Table 3, 6 days growth; read-out: AvgSen IC50
- Description: Cells were seeded at densities of 1,000-5,000 cells per well in 48-well tissue culture plates. After a 24 h rest period, cells were treated with compound at 10 μM, 1 μM, […], 0.08 μM, 0.016 μM, and 0.0032 μM. […] Prior to treatment, cells were counted and this count was used as a baseline for the calculation of growth inhibition. The cells were grown in the presence of compounds for 6 days and were counted on day 6. […]
Measurement type: IC50

- Compound: "Cc1c(-c2c(-c3ccc(F)cc3)ncc3snc(O[C@H](Cc4ccccc4OCc4ccnn4CC(F)(F)F)C(=O)O)c23)ccc(OCCN2CCN(C)CC2)c1Cl (single isomer, unassigned) [Compound 6]"
  Result: "1 to 5 µM"

In: Entry under review: Cc1c(-c2c(-c3ccc(F)cc3)ncc3snc(O[C@H](Cc4ccccc4OCc4ccnn4CC(F)(F)F)C(=O)O)c23)ccc(OCCN2CCN(C)CC2)c1Cl (single isomer, unassigned) [Compound 5] . Reported IC50?
Out: > 5 µM

In: Item under review: Cc1c(-c2c(Cl)ncc3snc(O[C@H](Cc4ccccc4OCc4ccnn4CC(F)(F)F)C(=O)O)c23)ccc(OCCN2CCN(C)CC2)c1Cl (single isomer, unassigned) [Compound 4] . Reported IC50?
Out: > 5 µM

In: Which measured IC50 value corresponds to Cc1c(-c2c(-c3ccc(F)s3)ncc3snc(O[C@H](Cc4ccccc4OCc4ccnn4CC(F)(F)F)C(=O)O)c23)ccc(OCCN2CCN(C)CC2)c1Cl (single isomer, unassigned) [Compound 2] ?
Out: 1 to 5 µM

In: Reported IC50 for COc1cccc(-c2ncc3snc(O[C@H](Cc4ccccc4OCc4ccnc(-c5ccccc5OC)n4)C(=O)O)c3c2-c2ccc(OC[C@@H]3CCCN3C)c(Cl)c2C)c1 (atropisomer, axis not shown) [Compound 49] : what is it?
Out: 1 to 5 µM

In: # input compound: Cc1c(-c2c(-c3ccc(F)s3)ncc3snc(O[C@H](Cc4ccccc4OCc4ccnn4CC(F)(F)F)C(=O)O)c23)ccc(OCCN2CCN(C)CC2)c1Cl (single isomer, unassigned) [Compound 1] ; wanted: its IC50
Out: > 5 µM

Data credit: patent US20230116602A1
